Source listed as PubChem BioAssay AID256.

# T/C values compiled below
Test system: CD2F1 mice, L1210 leukemia ip, survival T/C
ASSAY_METHOD_TEXT: NCI In Vivo Anticancer Drug Screen. Data for tumor model L1210 Leukemia (intraperitoneal) in CD2F1 (CDF1) mice
PROTOCOL_CONDITIONS: endpoint: mean survival time; dose: 200.0 mg/kg/injection; schedule: Q01DX001 (ip); vehicle: saline with Tween-80; higher = longer survival
Inconclusive results and toxic doses are left out.
ASSAY_READOUT: T/C

* CC(Br)C1(c2ccccc2)OCCO1 (stereo unspecified) | 94 % of control
* CC1CCC(NC(=O)NCCCl)CC1 (stereo unspecified) | 109 % of control
* Cc1cc(C2(c3ccc(O)c(C)c3)CCCCC2)ccc1O | 94 % of control
* O=C(O)Cc1ccccc1[N+](=O)[O-] | 101 % of control
* O=C(COCC(=O)N/N=C/c1ccc(Cl)c(Cl)c1)N/N=C/c1ccc(Cl)c(Cl)c1 | 94 % of control
* O=C(Nc1ccccc1)Nc1ccccc1C(=O)O | 95 % of control
* O=c1[nH]cc(Oc2ccccc2)c(=O)[nH]1 | 98 % of control
* COc1cc(OC)cc(C(c2nccc3cc(OC)c(OC)cc23)C(O)(C(F)(F)F)C(F)(F)F)c1 (stereo unspecified) | 93 % of control
* Nc1ccc(C(=O)Nc2cccc(S(=O)(=O)F)c2)cc1 | 98 % of control
* CN(C)C/C(=N\Oc1ccc([N+](=O)[O-])cc1[N+](=O)[O-])c1ccc(Cl)cc1 | 102 % of control
* CC(C)(O)CCC(C)(O)C1CCC2C3CCC4CC(O)CCC4(C)C3CCC21C (stereo unspecified) | 93 % of control

---

Test system: CD2F1 mice, L1210 leukemia ip, survival T/C
ASSAY_METHOD_TEXT: NCI In Vivo Anticancer Drug Screen. Data for tumor model L1210 Leukemia (intraperitoneal) in CD2F1 (CDF1) mice
PROTOCOL_CONDITIONS: endpoint: mean survival time; dose: 400.0 mg/kg/injection; schedule: Q04DX003 (ip); vehicle: saline; higher = longer survival
Inconclusive results and toxic doses are left out.
Measured T/C, listed per entry for reference.
ASSAY_READOUT: T/C

• CC1=CCCC1 = 95 % of control
• CC(=O)CCCSCCO = 101 % of control
• CC1CCC2(CC1=O)C(C)CC(=O)C2C(C)C (configuration not stated) = 98 % of control
• CCOC(=O)C(CC)CO (configuration not stated) = 103 % of control
• CCCCCCCCCCSCC = 103 % of control
• ICC12CCC1(CI)COC2 (configuration not stated) = 93 % of control
• O=C(O)CN(CCO)CCO = 102 % of control
• OC(c1ccccc1)(c1ccc2ccccc2n1)c1cccs1 (configuration not stated) = 90 % of control
• CC(=O)OCC1OC(OC(C)=O)C(OC(C)=O)C(OC(C)=O)C1OC(C)=O (configuration not stated) = 97 % of control
• CCN(C(=O)C(F)(F)F)C(C)(C)C(SSSC(c1ccc(Cl)cc1)C(C)(C)N(CC)C(=O)C(F)(F)F)c1ccc(Cl)cc1 (configuration not stated) = 86 % of control
• O=C(/C=C\c1ccc(O)c(O)c1)OC1C(O)CC(OC(=O)/C=C/c2ccc(O)c(O)c2)(C(=O)O)CC1O (configuration not stated) = 95 % of control
• O=C(Nc1ccc(Cl)c(Cl)c1)OCC#CCOC(=O)Nc1ccc(Cl)c(Cl)c1 = 91 % of control
